- System: M14 melanoma
- assay.protocol: NCI-60 one-dose screen, 48 h
- recorded.conditions: 10 µM unless noted
The panel holds about 83,000 compounds, 20% with a hit somewhere; the sample as a whole holds those more often. Calls of active or inactive are those of the source. Rule for the calls: active = growth percent below 10; inactive = the rest.
Select the correct class. Options are active, inactive and nothing else.

input: Fill in: this test's call for `C#Cc1cccc(NC(=O)c2ccc(NC(=O)CCl)cc2)c1` is ___
output: active

input: Fill in: this test's call for `O=C(CCCCCCN1CC(=O)N2[C@@H](c3ccccc3Cl)c3[nH]c4ccccc4c3C[C@H]2C1=O)NO` is ___
output: inactive

input: Fill in: this test's call for `O=C(N/N=C/c1ccncc1)c1ccc(C(F)(F)F)nc1Nc1cccc(C(F)(F)F)c1` is ___
output: inactive

input: Fill in: this test's call for `Fc1c[c-]c(-c2ccccn2)c(F)c1.[CH3-].[Pt+2].c1ccc(P(C[PH+](c2ccccc2)c2ccccc2)c2ccccc2)cc1` is ___
output: active

input: Fill in: this test's call for `Fc1cnc(NC2CC2)nc1-c1cnc2ccc(N3CCOCC3)cn12` is ___
output: active

input: Fill in: this test's call for `N[C@@H](CCCCNCC(=O)O)C(=O)O` is ___
output: inactive

input: Fill in: this test's call for N#CC1=C(/N=C/c2ccccc2)Oc2c(ccc3ccccc23)C1c1ccccc1 (centres undefined) is ___
output: active

input: Fill in: this test's call for `O=c1c2c3c(sc2n2c(-c4cn(-c5ccccc5)nc4-c4ccc(Cl)cc4)nnc2n1Cc1ccccc1)CCCC3` is ___
output: inactive

input: Fill in: this test's call for `COc1cccc(-c2nn(-c3ccccc3)cc2-c2ccnc(NCCCNC(=O)c3ccccc3)c2)c1` is ___
output: inactive

input: Fill in: this test's call for Cc1ccc(NS(=O)(=O)c2ccc3c(c2)C(=O)CC(c2ccc(C(=O)C(C)C)cc2)N3)cc1C (centres undefined) is ___
output: inactive

input: Fill in: this test's call for CC(CCc1ccc(Cl)c(Cl)c1)NCc1ccc(C(C)(C)C)cc1 (centres undefined) is ___
output: inactive

input: Fill in: this test's call for `CCN(CCNc1ccc(C)c2sc3ccccc3c(=O)c12)CC(C)(C)O` is ___
output: inactive

input: Fill in: this test's call for `COc1cc(-c2n/c(=C\c3c(O)[nH]c4ccc(Cl)cc34)cc3c2=Nc2ccccc2-3)cc(OC)c1OC` is ___
output: active

input: Fill in: this test's call for `O=[N+]([O-])c1ccc(Sc2cccc[n+]2[O-])c2nonc12` is ___
output: inactive

input: Fill in: this test's call for `COC(=O)c1c2c(c(C)[n+]([O-])c1C)C(=O)C(NCc1ccc(F)c(Cl)c1)=CC2=O` is ___
output: active

input: Fill in: this test's call for `O=C(NCCNc1cc(-c2cn(-c3ccccc3)nc2-c2cccc(O)c2)ccn1)Nc1ccccc1` is ___
output: inactive

input: Fill in: this test's call for Cc1cc(O)c(C2=NN(c3ccc(S(N)(=O)=O)cc3)C(c3ccccc3Cl)C2)cc1Cl (centres undefined) is ___
output: active

input: Fill in: this test's call for COc1ccc(C2C(c3nn[nH]n3)=C(N)Oc3c2ccc2ccccc32)cc1 (centres undefined) is ___
output: inactive

input: Fill in: this test's call for `CN(C)CCNc1nc2ccccc2c2c1c1c(n2Cc2ccccc2)-c2ccccc2C1=O` is ___
output: active
